What pIC50 was measured for each of the following?
Molecular target: His tagged PTPN2 (TC45) protein (Homo sapiens (Human))
Sequence (P17706 other isoform, or with tags, fused parts or gaps): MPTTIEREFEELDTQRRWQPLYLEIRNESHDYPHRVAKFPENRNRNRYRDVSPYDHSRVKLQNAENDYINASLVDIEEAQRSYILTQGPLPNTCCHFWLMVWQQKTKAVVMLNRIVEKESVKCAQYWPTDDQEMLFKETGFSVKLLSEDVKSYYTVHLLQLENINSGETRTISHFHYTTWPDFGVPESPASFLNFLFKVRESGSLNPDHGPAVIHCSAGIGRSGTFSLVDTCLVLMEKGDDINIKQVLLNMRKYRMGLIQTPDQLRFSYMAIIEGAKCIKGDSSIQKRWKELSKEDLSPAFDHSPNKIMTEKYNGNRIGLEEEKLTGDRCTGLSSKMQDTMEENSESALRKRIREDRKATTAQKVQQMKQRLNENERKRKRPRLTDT
Experiment: PTPN2 Mobility Shift Assay (MSA)
Assay type: biochemical
Details: enzyme 0.5 nM, substrate 2 μM
pIC50: −log10 of the molar value.

Answered examples (2):
>>> df
                                   molecule  quantity_measured  assay_result
0  CC(C)C1CC(CNC[C@H]2Cc3c(cc(O)c(N4CC(=O)NS4(=O)=O)c3F)N2)C1 (stereo partly shown)              pIC50        > 8.00
1  CCCCNC[C@H]1Cc2c(cc(O)c(N3CC(=O)NS3(=O)=O)c2F)N1              pIC50  7.00 to 8.00

List the reported pIC50 of each molecule below.
1. CC(C)CNCC1Cc2c(cc(O)c(N3CC(=O)NS3(=O)=O)c2F)O1 (stereo not shown)
2. COCCNC[C@H]1Cc2c(cc(O)c(N3CC(=O)NS3(=O)=O)c2F)N1

OUT:
["7.00 to 8.00", "7.00 to 8.00"]
